These data points were gathered from patent US20100260765A1.

biological target: T1, human KDR (human, UniProt P35968 20-1356); experiment: FACS competition on 293T/human KDR transfectants; antibody 5 ug/mL first, then competitor VEGF165 50 ng/mL; bound VEGF165 detected
T1 construct: whole, on cells; also called VEGFR2; endogenously-expressed KDR in HUVEC cells
T1 sequence (P35968 20-1356): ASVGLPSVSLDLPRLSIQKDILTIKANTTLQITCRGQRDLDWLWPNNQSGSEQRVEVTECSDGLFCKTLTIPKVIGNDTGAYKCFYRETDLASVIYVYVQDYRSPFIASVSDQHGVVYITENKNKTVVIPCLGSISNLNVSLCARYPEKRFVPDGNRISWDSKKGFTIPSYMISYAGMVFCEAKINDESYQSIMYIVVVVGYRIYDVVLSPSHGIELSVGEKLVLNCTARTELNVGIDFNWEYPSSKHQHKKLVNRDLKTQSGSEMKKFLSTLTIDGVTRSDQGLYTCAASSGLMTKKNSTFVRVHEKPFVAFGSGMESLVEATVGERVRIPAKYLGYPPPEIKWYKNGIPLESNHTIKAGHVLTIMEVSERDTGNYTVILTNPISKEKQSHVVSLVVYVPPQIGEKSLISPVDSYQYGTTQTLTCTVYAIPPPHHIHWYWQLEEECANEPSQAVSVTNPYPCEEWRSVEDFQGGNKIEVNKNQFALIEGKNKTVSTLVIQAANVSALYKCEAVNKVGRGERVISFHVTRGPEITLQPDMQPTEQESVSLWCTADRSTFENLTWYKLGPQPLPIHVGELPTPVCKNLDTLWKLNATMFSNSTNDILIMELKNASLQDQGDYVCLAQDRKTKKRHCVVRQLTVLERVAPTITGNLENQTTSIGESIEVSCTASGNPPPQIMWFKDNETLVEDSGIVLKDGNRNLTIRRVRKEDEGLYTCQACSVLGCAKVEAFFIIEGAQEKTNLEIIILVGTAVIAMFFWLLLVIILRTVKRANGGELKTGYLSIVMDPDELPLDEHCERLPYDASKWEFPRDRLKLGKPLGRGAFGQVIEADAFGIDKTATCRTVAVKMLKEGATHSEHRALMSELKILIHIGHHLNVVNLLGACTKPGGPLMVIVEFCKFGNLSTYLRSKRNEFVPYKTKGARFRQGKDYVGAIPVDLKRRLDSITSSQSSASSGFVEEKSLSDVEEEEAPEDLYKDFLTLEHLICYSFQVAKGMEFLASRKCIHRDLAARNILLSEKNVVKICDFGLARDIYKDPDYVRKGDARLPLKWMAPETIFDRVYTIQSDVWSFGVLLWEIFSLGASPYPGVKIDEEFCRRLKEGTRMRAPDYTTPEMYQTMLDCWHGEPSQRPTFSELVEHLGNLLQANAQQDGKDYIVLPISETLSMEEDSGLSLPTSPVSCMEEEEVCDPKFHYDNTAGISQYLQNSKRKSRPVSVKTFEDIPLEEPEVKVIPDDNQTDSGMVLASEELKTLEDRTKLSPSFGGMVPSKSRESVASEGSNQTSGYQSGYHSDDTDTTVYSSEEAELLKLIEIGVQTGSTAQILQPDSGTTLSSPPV
quantity measured: FACS Geometric Mean Fluorescence (bound VEGF165)
Number, no unit, nothing else.

Example cases with answers are listed next.
binder: 21H6 (antibody, V domains shown, Fully human monoclonal antibody from a XenoMouse hybridoma, purified) VH: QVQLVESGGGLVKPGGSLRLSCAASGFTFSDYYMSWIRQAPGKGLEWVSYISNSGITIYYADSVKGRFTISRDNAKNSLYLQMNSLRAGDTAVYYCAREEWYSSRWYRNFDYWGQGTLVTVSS VL: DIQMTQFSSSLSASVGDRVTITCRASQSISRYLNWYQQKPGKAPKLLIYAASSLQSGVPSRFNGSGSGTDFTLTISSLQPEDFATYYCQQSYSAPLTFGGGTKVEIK
experimental result: 133

binder: 33B1 (antibody, V domains shown, Fully human monoclonal antibody from a XenoMouse hybridoma (IgG2 or IgG4 strain), purified) VH: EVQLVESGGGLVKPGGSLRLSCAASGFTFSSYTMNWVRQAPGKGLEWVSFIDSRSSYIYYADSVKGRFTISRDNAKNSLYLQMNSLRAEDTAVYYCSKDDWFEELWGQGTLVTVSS VL: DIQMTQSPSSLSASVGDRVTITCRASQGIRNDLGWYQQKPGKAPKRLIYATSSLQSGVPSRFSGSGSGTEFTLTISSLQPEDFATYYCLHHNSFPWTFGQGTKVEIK
experimental result: 81

binder: 31E11 (antibody, V domains shown, Fully human monoclonal antibody from a XenoMouse hybridoma (IgG2 or IgG4 strain), purified) VH: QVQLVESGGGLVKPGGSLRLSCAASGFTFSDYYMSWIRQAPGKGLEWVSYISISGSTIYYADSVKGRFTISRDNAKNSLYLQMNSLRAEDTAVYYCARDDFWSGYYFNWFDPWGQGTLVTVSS VL: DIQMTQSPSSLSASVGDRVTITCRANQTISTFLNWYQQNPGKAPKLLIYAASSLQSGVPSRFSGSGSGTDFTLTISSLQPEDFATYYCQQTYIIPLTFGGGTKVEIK
experimental result: 138

The record that follows has no FACS Geometric Mean Fluorescence (bound VEGF165) shown yet.
Problem: If you can, please state the reported FACS Geometric Mean Fluorescence (bound VEGF165) value of 32F4 (antibody, V domains shown, Fully human monoclonal antibody from a XenoMouse hybridoma (IgG2 or IgG4 strain), purified) VH: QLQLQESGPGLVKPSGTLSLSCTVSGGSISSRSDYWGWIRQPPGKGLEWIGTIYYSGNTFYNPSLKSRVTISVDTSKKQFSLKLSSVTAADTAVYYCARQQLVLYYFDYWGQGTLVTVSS VL: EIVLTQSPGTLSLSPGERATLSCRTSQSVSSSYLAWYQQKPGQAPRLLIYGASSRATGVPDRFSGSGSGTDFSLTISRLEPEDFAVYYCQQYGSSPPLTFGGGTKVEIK .
Result: 112
